# credit: PubChem BioAssay (Tox21)

Assay: A CellTox Green Cytotoxicity Assay to monitor cytotoxicity in HEK293 cells - 32 hour (AID 1224881); also: nearly all actives have a fitted effect of over 40% in size
Details: CellTox Green fluorescence; series mostly up to 76.8 µM
Inconclusive results are not listed. Activity calls are given as the source filed them. Calls follow the shape of the dose curve; as a rule, active = well fitted activation curve with a large enough effect in the repeat runs; inconclusive = weak or mixed curves; inactive = flat fitted curve, though single readings scatter.
Classes used: active, inactive

Compound	Label Class
COC(=O)c1ccccc1OC	inactive
CCCCC(CC)COC(=O)CCCCC(=O)OCc1ccccc1 (stereo not given)	inactive
O=C1CCc2ccc(OCCCCN3CCN(c4cccc(Cl)c4Cl)CC3)cc2N1	inactive
O=C(Oc1ccccc1)Oc1ccccc1	inactive
CC(=O)CC(=O)Nc1ccc(S(=O)(=O)O)cc1	inactive
CCCC(=O)OCCc1ccccc1	active
CC(C)CCCCCOC(=O)CCS	inactive
O=C1C(c2[nH]c3ccc(S(=O)(=O)O)cc3c2O)=Nc2ccc(S(=O)(=O)O)cc21	inactive
O=C(O)c1cccc(C(F)(F)F)c1	inactive
COC1=C(OC)C(=O)C(CCCCCCCCCCO)=C(C)C1=O	inactive
CC1(C)[C@@H](O)CC[C@]2(C)[C@H]3C(=O)C=C4[C@@H]5C[C@@](C)(C(=O)O)CC[C@]5(C)CC[C@@]4(C)[C@]3(C)CC[C@@H]12	inactive
OC12N=C(c3ccccc3)SC1Cc1cc(Cl)ccc12 (stereo not given)	inactive
CN(C)C(=O)COC(=O)Cc1ccc(OC(=O)c2ccc(N=C(N)N)cc2)cc1	inactive
C=CC(=O)Nc1cc2c(Nc3ccc(F)c(Cl)c3)ncnc2cc1OCCCN1CCOCC1	active
Cc1cccc(C)c1NC(=O)c1ccc(N)cc1	inactive
COc1cc(C)ccc1O	inactive
Nc1nc(-c2ccccc2)cs1	inactive
CCO[C@@H]1O[C@H](C(COCc2ccccc2)OCc2ccccc2)[C@H](OCc2ccccc2)[C@H]1O (stereo not given in full)	inactive
CCCNCCC	inactive
C=C(C)c1cccc(C(=C)C)c1	inactive
OC[C@@H](O)[C@@H](O)CO	inactive
COc1c(C)c2c(c(O)c1C/C=C(\C)CCC(=O)OCCN1CCOCC1)C(=O)OC2	inactive
O=c1c(O)c(-c2ccc(O)cc2O)oc2cc(O)cc(O)c12	inactive
CC[N+](CC)(CC)CCOc1ccc(/C=C/c2ccccc2)cc1	active
CCCCC/C=C\C/C=C\CCCCCCCC(=O)O	inactive

###

Molecular target: Nuclear receptor subfamily 1 group I member 2 (Homo sapiens) (UniProt O75469)
Sequence (O75469 whole entry, looked up): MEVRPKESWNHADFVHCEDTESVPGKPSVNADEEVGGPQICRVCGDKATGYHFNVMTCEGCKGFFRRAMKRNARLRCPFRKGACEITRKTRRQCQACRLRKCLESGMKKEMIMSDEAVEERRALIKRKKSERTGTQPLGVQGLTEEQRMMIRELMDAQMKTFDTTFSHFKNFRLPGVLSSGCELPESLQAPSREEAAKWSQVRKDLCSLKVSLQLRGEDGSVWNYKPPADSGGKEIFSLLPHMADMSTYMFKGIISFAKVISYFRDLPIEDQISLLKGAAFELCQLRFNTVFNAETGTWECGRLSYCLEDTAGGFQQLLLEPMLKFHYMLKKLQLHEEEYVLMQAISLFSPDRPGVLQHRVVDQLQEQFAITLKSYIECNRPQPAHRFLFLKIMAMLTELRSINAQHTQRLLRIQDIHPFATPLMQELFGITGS
Experiment: Human pregnane X receptor (PXR) small molecule agonists, qHTS assay (AID 1346982); also: nearly all actives have a fitted effect of over 35% in size; also: potency is read from the fitted curve at half-maximal effect
Settings: PXR-Luc HepG2, CYP3A4 luciferase reporter, 24 h; series mostly up to 92.4 µM
Results filed as inconclusive are left out. The source made the active and inactive calls. Calls come from the whole dose curve; as a rule, active = well fitted activation curve with a large enough effect in the repeat runs; inconclusive = weak or mixed curves; inactive = no such curve, though single readings can be large or run the other way.

Molecule	Assay System	Potency
C=C(CC)C(=O)c1ccc(OCC(=O)O)c(Cl)c1Cl	Nuclear receptor subfamily 1 group I member 2 (Homo sapiens) (UniProt O75469)	inactive
Cc1cccc(C(=O)O)c1O	Nuclear receptor subfamily 1 group I member 2 (Homo sapiens) (UniProt O75469)	inactive
Cc1c(C)c2c(c(C)c1OC(=O)c1cccnc1)CC[C@@](C)(CCC[C@H](C)CCC[C@H](C)CCCC(C)C)O2	Nuclear receptor subfamily 1 group I member 2 (Homo sapiens) (UniProt O75469)	inactive
O=C1CCCCCCCCCCCCCCCO1	Nuclear receptor subfamily 1 group I member 2 (Homo sapiens) (UniProt O75469)	inactive
COc1cc(C)ccc1O	Nuclear receptor subfamily 1 group I member 2 (Homo sapiens) (UniProt O75469)	inactive
COC1=C(OC)C(=O)C(CCCCCCCCCCO)=C(C)C1=O	Nuclear receptor subfamily 1 group I member 2 (Homo sapiens) (UniProt O75469)	inactive
CC(C)=CCNc1ncnc2c1ncn2[C@@H]1O[C@H](CO)[C@@H](O)[C@H]1O	Nuclear receptor subfamily 1 group I member 2 (Homo sapiens) (UniProt O75469)	9.44 µM (active)
O=[N+]([O-])c1ccc(F)c(Cl)c1	Nuclear receptor subfamily 1 group I member 2 (Homo sapiens) (UniProt O75469)	inactive
O=[N+]([O-])c1cccc(C(F)(F)F)c1	Nuclear receptor subfamily 1 group I member 2 (Homo sapiens) (UniProt O75469)	inactive
CCCCOC(=O)CO	Nuclear receptor subfamily 1 group I member 2 (Homo sapiens) (UniProt O75469)	inactive
CCCCCC(C)OC(=O)COc1ccc(Cl)c2cccnc12 (stereo not given)	Nuclear receptor subfamily 1 group I member 2 (Homo sapiens) (UniProt O75469)	24.3 µM (active)
O=C(Nc1ccc2c(O)c(N=Nc3ccc(N=Nc4ccc(S(=O)(=O)O)cc4)cc3)c(S(=O)(=O)O)cc2c1)c1ccccc1	Nuclear receptor subfamily 1 group I member 2 (Homo sapiens) (UniProt O75469)	inactive
O=C(O)c1cccc(C(F)(F)F)c1	Nuclear receptor subfamily 1 group I member 2 (Homo sapiens) (UniProt O75469)	inactive
c1cnccn1	Nuclear receptor subfamily 1 group I member 2 (Homo sapiens) (UniProt O75469)	inactive
Nc1ccc(C(=O)O)c(O)c1	Nuclear receptor subfamily 1 group I member 2 (Homo sapiens) (UniProt O75469)	inactive
O=C1c2ccccc2C(=O)N1SC1CCCCC1	Nuclear receptor subfamily 1 group I member 2 (Homo sapiens) (UniProt O75469)	inactive
Nc1nc(N)nc(-c2cc(Cl)ccc2Cl)n1	Nuclear receptor subfamily 1 group I member 2 (Homo sapiens) (UniProt O75469)	inactive
O=C1OC2(c3ccc(O)cc3Oc3cc(O)ccc32)c2ccc(N=C=S)cc21	Nuclear receptor subfamily 1 group I member 2 (Homo sapiens) (UniProt O75469)	inactive
OC12N=C(c3ccccc3)SC1Cc1cc(Cl)ccc12 (stereo not given)	Nuclear receptor subfamily 1 group I member 2 (Homo sapiens) (UniProt O75469)	10.9 µM (active)
O=C(O)c1cc(O)c2ccccc2c1O	Nuclear receptor subfamily 1 group I member 2 (Homo sapiens) (UniProt O75469)	1.93 µM (active)
Nc1nc2c(ncn2COCCO)c(=O)[nH]1	Nuclear receptor subfamily 1 group I member 2 (Homo sapiens) (UniProt O75469)	inactive
CC(C)(C)c1ccc(C(O)CCCN2CCC(C(O)(c3ccccc3)c3ccccc3)CC2)cc1 (stereo not given)	Nuclear receptor subfamily 1 group I member 2 (Homo sapiens) (UniProt O75469)	inactive
CCCCCC/C=C\CCCCCCCC(=O)O	Nuclear receptor subfamily 1 group I member 2 (Homo sapiens) (UniProt O75469)	inactive
Cc1cc(=O)oc2cc(O)cc(O)c12	Nuclear receptor subfamily 1 group I member 2 (Homo sapiens) (UniProt O75469)	61.3 µM (active)
C[Si](Cl)(c1ccccc1)c1ccccc1	Nuclear receptor subfamily 1 group I member 2 (Homo sapiens) (UniProt O75469)	59.6 µM (active)
C#C[C@]1(OC(C)=O)CC[C@H]2[C@@H]3CCC4=C[C@@H](OC(C)=O)CC[C@@H]4[C@H]3CC[C@@]21C	Nuclear receptor subfamily 1 group I member 2 (Homo sapiens) (UniProt O75469)	29.8 µM (active)
C=CC(=O)Nc1cc2c(Nc3ccc(F)c(Cl)c3)ncnc2cc1OCCCN1CCOCC1	Nuclear receptor subfamily 1 group I member 2 (Homo sapiens) (UniProt O75469)	10.6 µM (active)
[Cu+]	Nuclear receptor subfamily 1 group I member 2 (Homo sapiens) (UniProt O75469)	inactive
COc1cccc(OC)c1C(=O)O	Nuclear receptor subfamily 1 group I member 2 (Homo sapiens) (UniProt O75469)	inactive
CCN1C(=O)c2ccccc2C1Nc1ccc(OCCN2CCCCC2)cc1 (stereo not given)	Nuclear receptor subfamily 1 group I member 2 (Homo sapiens) (UniProt O75469)	1.68 µM (active)
[Cl][Pt-2]([Cl])([Cl])[Cl]	Nuclear receptor subfamily 1 group I member 2 (Homo sapiens) (UniProt O75469)	inactive
CCCCCCOC(=O)C(C)CC (stereo not given)	Nuclear receptor subfamily 1 group I member 2 (Homo sapiens) (UniProt O75469)	inactive
CCCCCCCCCCCCCC[N+](C)(C)Cc1ccccc1	Nuclear receptor subfamily 1 group I member 2 (Homo sapiens) (UniProt O75469)	inactive
O=C(O)c1cc(N=Nc2ccc([N+](=O)[O-])cc2)ccc1O	Nuclear receptor subfamily 1 group I member 2 (Homo sapiens) (UniProt O75469)	0.301 µM (active)
CCCCCCCCCCC[C@@H](C[C@@H]1OC(=O)[C@H]1CCCCCC)OC(=O)[C@H](CC(C)C)NC=O	Nuclear receptor subfamily 1 group I member 2 (Homo sapiens) (UniProt O75469)	inactive
CC[N+](CC)(CC)CCOC(=O)C(C1CCCC1)C1CCCC1	Nuclear receptor subfamily 1 group I member 2 (Homo sapiens) (UniProt O75469)	inactive
COc1ccc(NC(=O)CC(C)=O)cc1	Nuclear receptor subfamily 1 group I member 2 (Homo sapiens) (UniProt O75469)	inactive
CC(C)(C)C1CCC(=O)CC1	Nuclear receptor subfamily 1 group I member 2 (Homo sapiens) (UniProt O75469)	inactive
COCCOc1cc2cc(C(=O)NC3CCN(C(C)C)CC3)n(CC(=O)Nc3ccc(Cl)cn3)c2cn1	Nuclear receptor subfamily 1 group I member 2 (Homo sapiens) (UniProt O75469)	inactive
CN(C)C(=O)COC(=O)Cc1ccc(OC(=O)c2ccc(N=C(N)N)cc2)cc1	Nuclear receptor subfamily 1 group I member 2 (Homo sapiens) (UniProt O75469)	inactive
S=C([S-])NCCNC(=S)[S-].S=C([S-])NCCNC(=S)[S-].[Mn+2].[Zn+2]	Nuclear receptor subfamily 1 group I member 2 (Homo sapiens) (UniProt O75469)	5.31 µM (active)
CCN(CC)C(=O)c1cc(S(=O)(=O)Cc2ccccc2)c(N2CCC(c3ccccc3)CC2)cc1N(CC)CCN(C)C	Nuclear receptor subfamily 1 group I member 2 (Homo sapiens) (UniProt O75469)	3.4 µM (active)
C=C(C)C(=O)OCCCCCCCCCC	Nuclear receptor subfamily 1 group I member 2 (Homo sapiens) (UniProt O75469)	30.9 µM (active)
COc1ccc(-c2coc3cc(O)ccc3c2=O)cc1	Nuclear receptor subfamily 1 group I member 2 (Homo sapiens) (UniProt O75469)	1.37 µM (active)
Cc1ccc(-c2ccccc2)cc1	Nuclear receptor subfamily 1 group I member 2 (Homo sapiens) (UniProt O75469)	inactive
CCC(COC(=O)CCS)(COC(=O)CCS)COC(=O)CCS	Nuclear receptor subfamily 1 group I member 2 (Homo sapiens) (UniProt O75469)	21.7 µM (active)
Cc1cccc(C)c1NC(=O)c1ccc(N)cc1	Nuclear receptor subfamily 1 group I member 2 (Homo sapiens) (UniProt O75469)	inactive
Nc1ccc(Oc2ccc(Cl)cc2)cc1	Nuclear receptor subfamily 1 group I member 2 (Homo sapiens) (UniProt O75469)	33.6 µM (active)
Cc1cc(-n2nc3ccc(Cl)cc3n2)c(O)c(C(C)(C)C)c1	Nuclear receptor subfamily 1 group I member 2 (Homo sapiens) (UniProt O75469)	inactive
CCCCCCCCCCCCCC[N+](C)(C)C	Nuclear receptor subfamily 1 group I member 2 (Homo sapiens) (UniProt O75469)	inactive
